# measurement-target: IRE1 (Homo sapiens (Human))
# Sequence (O75460 19-977): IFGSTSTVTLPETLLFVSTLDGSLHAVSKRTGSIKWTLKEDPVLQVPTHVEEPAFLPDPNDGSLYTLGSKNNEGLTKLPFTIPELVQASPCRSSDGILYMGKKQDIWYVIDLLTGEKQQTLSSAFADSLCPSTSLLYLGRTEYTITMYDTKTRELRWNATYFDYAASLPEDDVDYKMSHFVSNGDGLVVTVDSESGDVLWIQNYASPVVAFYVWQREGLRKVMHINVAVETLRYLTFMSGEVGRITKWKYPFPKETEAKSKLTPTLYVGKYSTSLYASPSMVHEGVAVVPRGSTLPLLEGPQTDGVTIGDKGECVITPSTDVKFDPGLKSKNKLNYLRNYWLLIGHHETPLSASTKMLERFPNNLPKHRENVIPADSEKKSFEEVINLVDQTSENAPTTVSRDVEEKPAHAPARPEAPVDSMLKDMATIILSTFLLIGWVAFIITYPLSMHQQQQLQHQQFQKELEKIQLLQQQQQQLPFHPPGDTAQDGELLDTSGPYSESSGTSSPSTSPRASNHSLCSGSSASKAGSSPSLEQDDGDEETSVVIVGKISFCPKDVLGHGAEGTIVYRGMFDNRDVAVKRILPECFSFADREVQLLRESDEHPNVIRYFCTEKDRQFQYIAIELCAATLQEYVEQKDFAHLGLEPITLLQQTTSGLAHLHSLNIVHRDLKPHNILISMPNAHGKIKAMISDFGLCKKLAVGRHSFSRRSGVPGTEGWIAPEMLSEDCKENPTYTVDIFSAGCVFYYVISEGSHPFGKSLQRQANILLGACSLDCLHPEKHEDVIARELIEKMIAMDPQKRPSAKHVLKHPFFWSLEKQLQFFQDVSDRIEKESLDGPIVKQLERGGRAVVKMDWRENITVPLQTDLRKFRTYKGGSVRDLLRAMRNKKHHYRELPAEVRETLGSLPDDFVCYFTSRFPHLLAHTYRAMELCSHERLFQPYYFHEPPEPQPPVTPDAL
# test: KINATIV assay
# Type: cell-based
# test-context: 1 μM, 90 minutes, BCWM.1 cells
parameter-measured: % change of MS signal compared to control sample
Answers without a unit are incomplete; give the number and then its unit.

Consider the following illustrative entries.
>  <compound>
C=CC(=O)N1CCC(Cn2ccc(Nc3ncc(C(=O)Nc4c(C)cccc4Cl)s3)n2)C1 (stereo not shown)

>  <experimental-result>
−29.5%

$$$$
>  <compound>
C=CC(=O)N1CC[C@@H](Nc2nccc(Nc3ncc(C(=O)Nc4c(C)cccc4C)s3)n2)C1

>  <experimental-result>
−44.3%

$$$$
>  <compound>
C=CC(=O)N1CCCCC(Nc2nccc(Nc3ncc(C(=O)Nc4c(C)cccc4C)s3)n2)C1 (stereo not shown)

>  <experimental-result>
−15.7%

$$$$

# next compound below
query: Which % change of MS signal compared to control sample is listed for C=CC(=O)N1CCC(CNc2nccc(Nc3ncc(C(=O)Nc4c(C)cccc4C)s3)n2)C1 (racemic) ?
result: −1.5%

---

# measurement-target: CDK6 (Homo sapiens (Human), UniProt Q00534)
# Sequence (Q00534 whole entry): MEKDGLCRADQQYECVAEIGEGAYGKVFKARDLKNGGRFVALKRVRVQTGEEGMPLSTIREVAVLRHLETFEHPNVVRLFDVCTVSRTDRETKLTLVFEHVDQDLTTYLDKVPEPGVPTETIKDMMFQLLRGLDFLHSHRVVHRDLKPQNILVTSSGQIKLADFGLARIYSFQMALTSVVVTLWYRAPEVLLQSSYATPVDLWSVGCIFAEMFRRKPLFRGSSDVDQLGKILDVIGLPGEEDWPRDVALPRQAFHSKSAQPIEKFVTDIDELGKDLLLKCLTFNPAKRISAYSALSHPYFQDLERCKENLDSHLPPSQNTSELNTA
# test: KINATIV assay
# Assay type: cell-based
# test-context: 1 μM, 90 minutes, BCWM.1 cells
% change of MS signal compared to control sample values, listed per item
State just the number; it will be interpreted in %.

// worked examples, % change of MS signal compared to control sample included
>  <molecule>
C=CC(=O)N1CC[C@@H](Nc2nccc(Nc3ncc(C(=O)Nc4c(C)cccc4C)s3)n2)C1 [Example I-4]

>  <readout-units>
%

>  <experimental-result>
7.8

$$$$
>  <molecule>
C=CC(=O)N1CCC(CNc2nccc(Nc3ncc(C(=O)Nc4c(C)cccc4C)s3)n2)C1 (racemic) [Example I-8]

>  <readout-units>
%

>  <experimental-result>
4.5

$$$$
>  <molecule>
C=CC(=O)N1CCCCC(Nc2nccc(Nc3ncc(C(=O)Nc4c(C)cccc4C)s3)n2)C1 (stereo not shown) [Example I-7]

>  <readout-units>
%

>  <experimental-result>
4.1

$$$$

Now examine the next entry.
query: Data request, read-out % change of MS signal compared to control sample, for C=CC(=O)N1CCC(Cn2ccc(Nc3ncc(C(=O)Nc4c(C)cccc4Cl)s3)n2)C1 (stereo not shown) [II-1]
result: 6.0

---

# measurement-target: BARK1 (Homo sapiens (Human))
# Sequence (P25098 whole entry): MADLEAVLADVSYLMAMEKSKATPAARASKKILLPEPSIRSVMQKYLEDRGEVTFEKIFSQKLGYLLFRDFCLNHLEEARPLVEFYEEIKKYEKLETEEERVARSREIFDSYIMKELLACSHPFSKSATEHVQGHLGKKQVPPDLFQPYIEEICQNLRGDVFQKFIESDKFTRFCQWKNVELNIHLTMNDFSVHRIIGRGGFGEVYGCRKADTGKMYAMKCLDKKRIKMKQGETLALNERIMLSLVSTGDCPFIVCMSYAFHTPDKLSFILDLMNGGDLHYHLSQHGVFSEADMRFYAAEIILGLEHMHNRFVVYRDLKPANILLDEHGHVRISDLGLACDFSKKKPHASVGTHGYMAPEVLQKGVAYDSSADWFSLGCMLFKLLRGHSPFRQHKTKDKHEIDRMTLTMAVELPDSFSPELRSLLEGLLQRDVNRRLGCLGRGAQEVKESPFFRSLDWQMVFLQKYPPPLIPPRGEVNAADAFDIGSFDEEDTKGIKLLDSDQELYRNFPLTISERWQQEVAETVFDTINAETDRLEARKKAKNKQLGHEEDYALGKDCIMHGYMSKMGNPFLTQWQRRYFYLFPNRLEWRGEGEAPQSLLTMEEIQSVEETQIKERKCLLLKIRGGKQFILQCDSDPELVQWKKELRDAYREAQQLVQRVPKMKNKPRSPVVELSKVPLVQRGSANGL
# test: KINATIV assay
# Type: cell-based
# test-context: 1 μM, 90 minutes, BCWM.1 cells
The entries below are paired with their reported % change of MS signal compared to control sample.
The reply should be a number in %, with the unit left off.

query: Which % change of MS signal compared to control sample is reported for this compound? C=CC(=O)N1CCC(Cn2ccc(Nc3ncc(C(=O)Nc4c(C)cccc4Cl)s3)n2)C1 (stereo not shown) [II-1]
result: −23.3

query: Note, next up: C=CC(=O)N1CCCCC(Nc2nccc(Nc3ncc(C(=O)Nc4c(C)cccc4C)s3)n2)C1 (stereo not shown) [Example I-7]
result: −29.7

query: Also, C=CC(=O)N1CC[C@@H](Nc2nccc(Nc3ncc(C(=O)Nc4c(C)cccc4C)s3)n2)C1 [Example I-4] please.
result: −8.1

query: Another compound to check: C=CC(=O)N1CCC(CNc2nccc(Nc3ncc(C(=O)Nc4c(C)cccc4C)s3)n2)C1 (racemic) [Example I-8]
result: −19.6
